Attribute: Adduct formation
method: Percent adduct formed by co-valent binding to the enzyme was assessed by irradiating a solution of the photoprobe and the PTP1B enzyme with a 40W lamp

These solved cases illustrate the format of a correct answer.
chemical.structure: NC(=O)[C@H](Cc1ccc(C(F)(F)P(=O)(O)O)c(Br)c1)NC(=O)[C@H](Cc1ccc(C(F)(F)P(=O)(O)O)c(Br)c1)NC(=O)c1cc(Br)cc(C2(C(F)(F)F)N=N2)c1
measured: 6%

chemical.structure: NC(=O)[C@H](Cc1ccc(C(F)(F)P(=O)(O)O)cc1)NC(=O)[C@H](Cc1ccc(C(F)(F)P(=O)(O)O)cc1)NC(=O)c1cc(I)cc(C2(C(F)(F)F)N=N2)c1
measured: 8%

chemical.structure: NC(=O)[C@H](Cc1ccc(C(F)(F)P(=O)(O)O)c(Br)c1)NC(=O)[C@H](Cc1ccc(C(F)(F)P(=O)(O)O)c(Br)c1)NC(=O)c1cc(I)cc(C2(C(F)(F)F)N=N2)c1
measured: 8%

chemical.structure: NC(=O)[C@H](Cc1ccc(C(F)(F)P(=O)(O)O)cc1)NC(=O)[C@H](Cc1ccc(C(F)(F)P(=O)(O)O)cc1)NC(=O)[C@H](CCC(=O)O)NCc1cc(Br)cc(C2(C(F)(F)F)N=N2)c1
measured: 5%

chemical.structure: NC(=O)[C@H](Cc1ccc(C(F)(F)P(=O)(O)O)cc1)NC(=O)[C@H](Cc1cc(Br)cc(C2(C(F)(F)F)N=N2)c1)NC(=O)c1cc(Br)cc(C2(C(F)(F)F)N=N2)c1
measured: < 5%

Now let's try a different one.
Q) Give the value of Adduct formation reported for the following: "NC(=O)[C@H](Cc1ccc(C(F)(F)P(=O)(O)O)cc1)NC(=O)[C@H](Cc1ccc(C(F)(F)P(=O)(O)O)cc1)NC(=O)[C@H](CCC(=O)O)NC(=O)c1cc(Br)cc(C2(C(F)(F)F)N=N2)c1"
A) 8%

###

The following compounds are listed with their measured IC50 values.
method: Inhibitory activity of compound against phosphotyrosine phosphatase-1B
Kindly provide the numeric value in nM only, without the unit symbol.

Worked examples follow.
chemical.structure: NC(=O)[C@H](Cc1ccc(C(F)(F)P(=O)(O)O)cc1)NC(=O)[C@H](Cc1ccc(C(F)(F)P(=O)(O)O)cc1)NC(=O)[C@H](CCC(=O)O)NC(=O)c1cc(Br)cc(C2(C(F)(F)F)N=N2)c1
IC50, nM: 14
--
chemical.structure: NC(=O)[C@H](Cc1ccc(C(F)(F)P(=O)(O)O)cc1)NC(=O)[C@H](Cc1ccc(C(F)(F)P(=O)(O)O)cc1)NCc1cc(Br)cc(C2(C(F)(F)F)N=N2)c1
IC50, nM: 1700

For the next question, use this compound.
Q) Identify measured IC50 corresponding to "NC(=O)[C@H](Cc1ccc(C(F)(F)P(=O)(O)O)cc1)NC(=O)[C@H](Cc1ccc(C(F)(F)P(=O)(O)O)cc1)NC(=O)[C@H](CCC(=O)O)NCc1cc(Br)cc(C2(C(F)(F)F)N=N2)c1"
A) 3

###

method: Inhibitory activity of compound against phosphotyrosine phosphatase-1B
readout.type: IC50 (nM)
Answer with a number only, understood to be in nM.

See these solved cases before continuing.
chemical.structure: NC(=O)[C@H](Cc1ccc(C(F)(F)P(=O)(O)O)c(Br)c1)NC(=O)[C@H](Cc1ccc(C(F)(F)P(=O)(O)O)c(Br)c1)NC(=O)c1cc(I)cc(C2(C(F)(F)F)N=N2)c1
endpoint.unit: nM
measured: 4
//
chemical.structure: NC(=O)[C@H](Cc1ccc(C(F)(F)P(=O)(O)O)cc1)NC(=O)[C@H](Cc1ccc(C(F)(F)P(=O)(O)O)cc1)NC(=O)c1cc(Br)cc(C2(C(F)(F)F)N=N2)c1
endpoint.unit: nM
measured: 12
//
chemical.structure: NC(=O)[C@H](Cc1ccc(C(F)(F)P(=O)(O)O)cc1)NC(=O)[C@H](Cc1cc(Br)cc(C2(C(F)(F)F)N=N2)c1)NC(=O)c1cc(Br)cc(C2(C(F)(F)F)N=N2)c1
endpoint.unit: nM
measured: 15
//
chemical.structure: NC(=O)[C@H](Cc1ccc(C(F)(F)P(=O)(O)O)cc1)NC(=O)c1cc(Br)cc(C2(C(F)(F)F)N=N2)c1
endpoint.unit: nM
measured: 9500

Q) Hello, please tell me recorded IC50 for this one: "NC(=O)[C@H](Cc1ccc(C(F)(F)P(=O)(O)O)cc1)NC(=O)[C@H](Cc1ccc(C(F)(F)P(=O)(O)O)cc1)NC(=O)c1cc(I)cc(C2(C(F)(F)F)N=N2)c1"
A) 9

Q) Quick one: give measured IC50 for "NC(=O)[C@H](Cc1ccc(C(F)(F)P(=O)(O)O)c(Br)c1)NC(=O)[C@H](Cc1ccc(C(F)(F)P(=O)(O)O)c(Br)c1)NC(=O)c1cc(Br)cc(C2(C(F)(F)F)N=N2)c1"
A) 0.3
